- TESTED_ON: recombinant human FLAP protein (Homo sapiens)
- Construct: made in house; host or cells: Sf9 insect cells (100,000×g membrane pellet used)
- Sequence (P20292 1-161): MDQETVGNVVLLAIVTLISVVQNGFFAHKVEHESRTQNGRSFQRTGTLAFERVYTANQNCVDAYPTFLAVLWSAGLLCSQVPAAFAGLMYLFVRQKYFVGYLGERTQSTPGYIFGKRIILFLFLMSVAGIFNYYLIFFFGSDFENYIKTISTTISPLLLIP
- MEASUREMENT_DESCRIPTION: FLAP binding assay (SPA, displacement of [125I]L-691,831)
- EXPERIMENTAL_SETUP: membranes of sf9 cells expressing recombinant human FLAP; [125I]L-691,831 probe; read-out: FLAP binding IC50
- Protocol: Assessment of Biological Properties 1. Binding Assay Compounds are assessed for the ability to bind to FLAP in a binding assay that measures compound-specific displacement of an iodinated (^125I) FLAP inhibitor via a Scintillation Proximity Assay format (adapted from S. Charleson et al., Mol. Pharmacol., 1992, 41, 873-879). Cell pellets produced from sf9 insect cells expressing recombinant human FLAP protein are resuspended in buffer A [15 mM Tris-HCl (pH 7.5), 2 mM MgCl2, 0.3 mM EDTA, 1 mM PMSF]. […]
pIC50: −log10 of the molar value.
VALUE_TYPE: pIC50

A selection of reference data follows.
CC(C)(O)CNc1cnc(-c2nc(C(C)(C)c3ccc(-c4cnc(N)nc4)cc3)no2)cn1 [Example 73] ... 7.55
CC(O)CNc1ccc(-c2nc(C(C)(c3ccc(-c4cnc(N)nc4)cc3)C3CC3)no2)cn1 (stereo not shown) [Example 40] ... 8.64
CC(C)C(C)(c1ccc(-c2cnc(N)nc2)cc1)c1noc(NC2CCC(O)CC2)n1 (stereo not shown) [Example 237] ... 7.59
CC(C)C(C)(c1ccc(-c2cnc(N)nc2)cc1)c1noc(-c2ccccc2)n1 (stereo not shown) [Example 2] ... 8.29
CC(=O)N1CCN(c2nc(C(C)(c3ccc(-c4cnc(N)nc4)cc3)C(C)C)no2)CC1 (stereo not shown) [Example 169] ... 7.85
CNc1ncc(-c2ccc([C@](C)(c3noc(-c4cnn(CC(=O)N(C)C)c4)n3)C3CC3)cc2)cn1 [Example 226] ... 8.70

1 = COc1ncccc1-c1nc(C(C)(c2ccc(-c3cnc(N)nc3)cc2)C(C)C)no1 (stereo not shown) [Example 10]
2 = CC(c1ccc(-c2ccc(N)nc2)cc1)(c1noc(N2CCC(O)CC2)n1)C1CC1 (stereo not shown) [Example 248]
IN: Which value of pIC50 is greater, the one for 1 or the one for 2 ? Record your answer as the label of the chosen record.
OUT: 1
(1: 8.37, 2: 8.00)

1 = CN(C)C(=O)Cn1cc(-c2nc(C(C)(c3ccc(-c4ncc(N)nc4C#N)cc3)C3CC3)no2)cn1 (stereo not shown) [Example 295]
2 = Cc1nc(N)ncc1-c1ccc([C@@](C)(c2noc(-c3cnn(CC(=O)N(C)C)c3)n2)C2CC2)cc1 [Example 258]
IN: Lower value of pIC50 belongs to which: 1 or 2 ? Answer by quoting the chosen item's label.
OUT: 2
(2: 6.37, 1: 8.12)

Recorded values, source patent US8658661B2.
